// reported folding enthalpy for each item listed
- test details: folding enthalpy; higher = less favourable; fluorescence melt of hairpins on a sequencing array, two-state fit
- condition label: sodium 0.088 M
Give the value in kcal/mol but do not write kcal/mol after it.

Example cases with answers are listed next.
ordered residues | unit symbol | folding enthalpy
GTACTAGGAAACTGGTAC ((((.((....)).)))) | kcal/mol | -31.4
GATCTGGCGCCAGATC ((((((....)))))) | kcal/mol | -47.8

Quick note, folding enthalpy for GTTTCACGAAAGTGAAC (((.(((....)))))) landed at -14.4

Quick note, folding enthalpy for GAGCTCGGAAACGAACTC (((.(((....))).))) landed at -28.6

Quick note, folding enthalpy for CGTTACGGAAACGTTACG (((.(((....))).))) landed at -26.9

Quick note, folding enthalpy for GATCTCACTCGAGATC ((((((....)))))) landed at -50.8

---

- test details: melting temperature; fluorescence melt of hairpins on a sequencing array, two-state fit, raised by 9.35 °C to match UV melts
- condition label: sodium 0.088 M
readout label: Tm (°C)
Give the value in °C but do not write °C after it.

Quick note, Tm for GTGAACGAAAGTTTTCAC ((((((....)))..))) landed at 31.1

Quick note, Tm for GCCTACGAAAGTATGGC ((((((....))).))) landed at 52.3

Quick note, Tm for GCATACCCGAAAGGGTGC (((..(((....)))))) landed at 49.7

Quick note, Tm for GTCGGCGAAAGCCCGAC ((((((....))).))) landed at 64.7

---

- test details: melting temperature; fluorescence melt of hairpins on a sequencing array, two-state fit, raised by 9.35 °C to match UV melts
- condition label: sodium 0.088 M
// reported Tm for each item listed
In your response, put the unit directly after the numeric value.

Example cases with answers are listed next.
ordered residues | Tm
GGTACGCGAAAGCGACC (((.(((....)))))) | 54.8 °C
GACCGTACGAAAGTAGTC (((..(((....)))))) | 26.5 °C
GACTGGACGAAAGTCGTC (((..(((....)))))) | 46.8 °C
TATACGAAAGTATA (((((....))))) | 42.1 °C
CGCGCGGAAACGCAGGCG ((((((....)))..))) | 57.2 °C

Now consider a different sequence.
Quick note, Tm for GGAGTCGAAAGACGCTCC ((((((....)))..))) landed at 42.3 °C

---

// reported Tm for each item listed
- test details: melting temperature; fluorescence melt of hairpins on a sequencing array, two-state fit, raised by 9.35 °C to match UV melts
- condition label: sodium 0.088 M
Give the value in °C but do not write °C after it.

Quick note, Tm for GAATCGGGAAACTGGTTC (((.(.(....).).))) landed at 29.3

Quick note, Tm for GCTGGAGGAAACTCCGGC ((.((((....)))).)) landed at 57.1

Quick note, Tm for GTACTGGGAAACCAGTGC (.(((((....))))).) landed at 50.2

---

- test details: melting temperature; fluorescence melt of hairpins on a sequencing array, two-state fit, raised by 9.35 °C to match UV melts
- condition label: sodium 0.088 M
Note to self: use true only for Tm readings below 50 °C; a reading exactly at 50 °C still gets false.

ordered residues | discrete label
GAAATCGGAAACGATTCC (.(((((....))))).) | true
GCTAACTCGAAAGAGAGC (((..(((....)))))) | true
GATCACGGCGGTGATC ((((((....)))))) | false

Query: Lab log: compare recorded Tm with 50 °C; is it strictly lower for GTTTCCGAAAGGACGAAC ((((((....)))..))) ?
Result: true

Query: Lab log: compare recorded Tm with 50 °C; is it strictly lower for GCGTGGTCACGC ((((....)))) ?
Result: false

Query: Lab log: compare recorded Tm with 50 °C; is it strictly lower for GATCAAGCGTTGATC ((((((...)))))) ?
Result: true

Query: Lab log: compare recorded Tm with 50 °C; is it strictly lower for GCTGGGCGAAAGCACCGC ((.(.((....)).).)) ?
Result: false

Query: Lab log: compare recorded Tm with 50 °C; is it strictly lower for GCTGGGCGAAAGCCGGGC ((..(((....)))..)) ?
Result: false
